Source of measurements: ChEMBL document CHEMBL1201862

Exercise: state measured EC50 for each of the compounds provided.
target: Corticotropin-releasing factor receptor 2/Corticotropin-releasing factor-binding protein (Homo sapiens, UniProt P24387+Q13324); assay: activators of CRF receptor 2 with binding protein – uHTS hits, confirmation (AID 602473); format: functional; settings: read-out: EC50_Mean
Sequence (Q13324 whole entry): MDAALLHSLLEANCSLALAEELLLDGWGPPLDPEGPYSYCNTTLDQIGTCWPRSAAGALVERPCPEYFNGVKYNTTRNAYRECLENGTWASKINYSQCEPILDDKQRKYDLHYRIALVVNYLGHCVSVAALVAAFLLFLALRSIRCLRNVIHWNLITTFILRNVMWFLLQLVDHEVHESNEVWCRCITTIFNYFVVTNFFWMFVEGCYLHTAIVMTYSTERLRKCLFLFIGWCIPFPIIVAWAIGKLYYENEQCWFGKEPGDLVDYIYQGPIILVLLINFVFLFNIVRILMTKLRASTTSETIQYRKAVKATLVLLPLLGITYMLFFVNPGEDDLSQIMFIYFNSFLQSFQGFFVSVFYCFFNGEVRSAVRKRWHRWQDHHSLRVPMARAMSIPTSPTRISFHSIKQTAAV
Sequence (P24387 whole entry): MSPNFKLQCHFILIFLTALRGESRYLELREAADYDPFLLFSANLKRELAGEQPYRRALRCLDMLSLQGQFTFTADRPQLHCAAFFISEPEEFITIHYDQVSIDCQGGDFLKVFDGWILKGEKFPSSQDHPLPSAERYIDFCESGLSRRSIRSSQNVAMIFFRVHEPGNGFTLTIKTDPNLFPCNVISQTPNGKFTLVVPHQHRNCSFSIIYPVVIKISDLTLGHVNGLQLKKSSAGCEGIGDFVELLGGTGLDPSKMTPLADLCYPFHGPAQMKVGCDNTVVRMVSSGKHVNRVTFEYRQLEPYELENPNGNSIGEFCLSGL
Calls of active or inactive are those of the source.

Solved entries:
>>> result("COc1ccc(OC2C(=O)N(Cc3ccc(F)cc3)C2c2cc(OC)c(OC)c(OC)c2)cc1 (stereo not given)")
"> 53 µM (inactive)"
>>> result("Cc1cc(C(=O)N2CCN(c3ccc([N+](=O)[O-])cc3)CC2)co1")
"> 53 µM (inactive)"
>>> result("CN1CN(c2ccccc2)C2(CCN(CCCSc3ccccc3NC(=O)/C=C/c3ccccc3)CC2)C1=O")
"6.22 µM (active)"

I need EC50 for every entry listed below, if you could help.
1. CCC(C)NC(=O)CSc1nc2ccccc2c(=O)n1CCCC(=O)NCC1CCCO1 (stereo not given)
2. CC1(C)Cc2c(sc(/N=C/N3CCCC3)c2C#N)C(C)(C)N1
3. Cc1ccc(CSCC(=O)Nc2cc(S(=O)(=O)N3CCOCC3)ccc2OC(C)C)cc1
4. CSc1ccccc1OCc1cc(C(=O)NCc2csc(C(C)C)n2)no1
5. Cc1nn(-c2cccc([N+](=O)[O-])c2)c(N)c1-c1ccccc1
6. CN(C)c1ccc(/C(=N\O)c2ccccc2)cc1

output:
1: > 53 µM (inactive); 2: > 53 µM (inactive); 3: > 53 µM (inactive); 4: > 53 µM (inactive); 5: > 53 µM (inactive); 6: > 53 µM (inactive)

input: Name the recorded EC50 of the item O=C(NCc1ccco1)C1CC(c2ccccc2O)=NO1 (stereo not given) in your answer.
output: > 53 µM (inactive)

----------
biological target: UniProt P05177
Sequence (P05177 whole entry): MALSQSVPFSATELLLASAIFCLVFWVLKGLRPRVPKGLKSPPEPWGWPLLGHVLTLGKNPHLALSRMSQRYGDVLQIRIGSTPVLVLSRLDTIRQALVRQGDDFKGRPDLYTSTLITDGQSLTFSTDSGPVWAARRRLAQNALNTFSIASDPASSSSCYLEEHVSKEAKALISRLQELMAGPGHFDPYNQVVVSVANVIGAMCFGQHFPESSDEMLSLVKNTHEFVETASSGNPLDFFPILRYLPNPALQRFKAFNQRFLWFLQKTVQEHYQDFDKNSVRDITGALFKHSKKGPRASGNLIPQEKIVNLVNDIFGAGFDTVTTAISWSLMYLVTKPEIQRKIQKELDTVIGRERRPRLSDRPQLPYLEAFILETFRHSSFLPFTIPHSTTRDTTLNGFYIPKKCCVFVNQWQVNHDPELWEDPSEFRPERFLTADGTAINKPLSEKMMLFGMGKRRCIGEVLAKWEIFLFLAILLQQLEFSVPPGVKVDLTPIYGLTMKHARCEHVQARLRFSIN
The source made the active and inactive calls.
Exercise: state measured AC50 for each of the molecules provided.

Solved entries:
>>> result("c1ccc(CNc2nc(-c3cccnc3)nc3ccccc23)cc1")
"0.398 µM (active)"
>>> result("NCCCCNS(=O)(=O)c1cccc2c(Cl)cccc12")
"15.8 µM (inconclusive)"
>>> result("N=C(N)SCc1cc(Cl)cc(Cl)c1O")
"5.01 µM (inconclusive)"
>>> result("Cc1ccc(-c2nc3ccccc3o2)cc1NC(=O)Cc1cccs1")
"2 µM (inconclusive)"

I need AC50 for every entry listed below, if you could help.
1. O=C(Nc1cccc(F)c1)N1CCCC2(CCN(C(=O)Oc3ccccc3)CC2)C1
2. FC(F)(F)c1ccccc1-c1cncnc1NCCN1CCOCC1
3. CC(=O)NCc1c(Cl)cccc1-n1cccc1
4. CCc1ccc(N2CC(C(=O)N/N=C/c3cccc([N+](=O)[O-])c3)CC2=O)cc1 (configuration not stated)

output:
1. 10 µM (inconclusive)
2. 2.51 µM (inconclusive)
3. 15.8 µM (inconclusive)
4. 3.16 µM (inconclusive)

I need AC50 for every entry listed below, if you could help.
1. Cc1ccc(C)c(NC(=O)C2CC(O)CN2C(=O)OC(C)(C)C)c1 (configuration not stated)
2. Cc1ccc(CNC(=O)Cn2cncn2)cc1

output:
31.6 µM (inconclusive)
39.8 µM (inconclusive)

I need AC50 for every entry listed below, if you could help.
1. COC(=O)C1CCN(CC(=O)Nc2sc3c(c2C#N)CCC3)CC1
2. c1ccc2c(c1)-c1ccccc1C2N1C[C@H]2CC[C@H](CC2)C1

output:
15.8 µM (inconclusive)
0.501 µM (inconclusive)

----------
biological target: Luciferin 4-monooxygenase (Photinus pyralis); assay: firefly luciferase enzyme inhibitors, dose response, biochemical, luminescence (AID 1891)
Sequence (P08659 whole entry): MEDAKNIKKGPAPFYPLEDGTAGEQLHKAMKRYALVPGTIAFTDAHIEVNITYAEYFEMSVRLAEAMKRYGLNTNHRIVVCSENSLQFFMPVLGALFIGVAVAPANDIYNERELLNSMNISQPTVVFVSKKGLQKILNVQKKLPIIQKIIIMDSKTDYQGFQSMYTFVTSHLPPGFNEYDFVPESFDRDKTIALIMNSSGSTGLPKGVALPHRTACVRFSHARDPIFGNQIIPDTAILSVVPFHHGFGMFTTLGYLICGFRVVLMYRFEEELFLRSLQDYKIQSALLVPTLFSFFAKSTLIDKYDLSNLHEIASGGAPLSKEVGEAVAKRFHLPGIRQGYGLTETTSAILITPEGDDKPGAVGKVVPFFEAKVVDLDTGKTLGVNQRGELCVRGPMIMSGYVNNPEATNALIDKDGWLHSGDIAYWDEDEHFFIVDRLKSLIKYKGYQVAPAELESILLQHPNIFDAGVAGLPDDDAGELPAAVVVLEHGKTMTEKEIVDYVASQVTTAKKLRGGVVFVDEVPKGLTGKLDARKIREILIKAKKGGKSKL
Active and inactive are the calls of the source.
Exercise: state measured EC50 for each of the molecules provided.

>>> result("COc1cc(CN2CCNC(=O)C2CC(=O)NCCCN2CCOCC2)cc(OC)c1 (stereo unspecified)")
"> 112 µM (not active)"
>>> result("COc1ccc(/C=N/Nc2ccccn2)cc1O")
"17.6 µM (active)"
>>> result("CCN(CC(=O)Nc1ccccc1C(F)(F)F)C(=O)CCc1c(C)nc(O)c(C#N)c1C")
"> 112 µM (not active)"
>>> result("COC(=O)c1ccc(=O)n(-c2ccc(OC)cc2)c1")
"> 112 µM (not active)"
>>> result("O=C(c1ccncc1)N1CCN(C(=O)c2cccc3ccccc23)CC1")
"> 112 µM (not active)"

// next entry
input: Name the recorded EC50 of the item CCC(Oc1cc(Cl)ccc1Cl)C(=O)NNC(=O)CCC(=O)O (stereo unspecified) in your answer.
output: > 112 µM (not active)

----------
biological target: Peroxisome proliferator-activated receptor gamma/Nuclear receptor coactivator 2 (Homo sapiens, UniProt P37231); assay: TR-FRET dose response biochemical High Throughput Screening assay for agonists of the steroid receptor coactivator 2 (SRC-2) recruitment by the peroxisome proliferator-activated receptor gamma (PPAR gamma): non-selective agonists. [Related pubchem assays: 1297, 1032 ]; type: functional
Sequence (P37231 whole entry): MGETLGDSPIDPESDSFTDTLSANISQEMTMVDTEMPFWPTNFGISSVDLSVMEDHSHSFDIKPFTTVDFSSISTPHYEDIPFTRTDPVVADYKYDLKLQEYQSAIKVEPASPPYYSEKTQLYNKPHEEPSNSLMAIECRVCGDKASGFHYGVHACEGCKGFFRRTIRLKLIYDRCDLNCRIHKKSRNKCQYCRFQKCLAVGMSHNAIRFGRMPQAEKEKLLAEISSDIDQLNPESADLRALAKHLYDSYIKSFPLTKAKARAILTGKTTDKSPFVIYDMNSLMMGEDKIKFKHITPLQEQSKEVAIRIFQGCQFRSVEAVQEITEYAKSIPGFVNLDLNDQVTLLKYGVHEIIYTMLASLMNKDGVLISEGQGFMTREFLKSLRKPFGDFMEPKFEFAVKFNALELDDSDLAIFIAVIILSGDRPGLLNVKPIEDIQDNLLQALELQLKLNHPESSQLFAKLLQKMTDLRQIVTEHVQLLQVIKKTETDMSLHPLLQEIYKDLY
Sequence (Q15596 whole entry, further chain): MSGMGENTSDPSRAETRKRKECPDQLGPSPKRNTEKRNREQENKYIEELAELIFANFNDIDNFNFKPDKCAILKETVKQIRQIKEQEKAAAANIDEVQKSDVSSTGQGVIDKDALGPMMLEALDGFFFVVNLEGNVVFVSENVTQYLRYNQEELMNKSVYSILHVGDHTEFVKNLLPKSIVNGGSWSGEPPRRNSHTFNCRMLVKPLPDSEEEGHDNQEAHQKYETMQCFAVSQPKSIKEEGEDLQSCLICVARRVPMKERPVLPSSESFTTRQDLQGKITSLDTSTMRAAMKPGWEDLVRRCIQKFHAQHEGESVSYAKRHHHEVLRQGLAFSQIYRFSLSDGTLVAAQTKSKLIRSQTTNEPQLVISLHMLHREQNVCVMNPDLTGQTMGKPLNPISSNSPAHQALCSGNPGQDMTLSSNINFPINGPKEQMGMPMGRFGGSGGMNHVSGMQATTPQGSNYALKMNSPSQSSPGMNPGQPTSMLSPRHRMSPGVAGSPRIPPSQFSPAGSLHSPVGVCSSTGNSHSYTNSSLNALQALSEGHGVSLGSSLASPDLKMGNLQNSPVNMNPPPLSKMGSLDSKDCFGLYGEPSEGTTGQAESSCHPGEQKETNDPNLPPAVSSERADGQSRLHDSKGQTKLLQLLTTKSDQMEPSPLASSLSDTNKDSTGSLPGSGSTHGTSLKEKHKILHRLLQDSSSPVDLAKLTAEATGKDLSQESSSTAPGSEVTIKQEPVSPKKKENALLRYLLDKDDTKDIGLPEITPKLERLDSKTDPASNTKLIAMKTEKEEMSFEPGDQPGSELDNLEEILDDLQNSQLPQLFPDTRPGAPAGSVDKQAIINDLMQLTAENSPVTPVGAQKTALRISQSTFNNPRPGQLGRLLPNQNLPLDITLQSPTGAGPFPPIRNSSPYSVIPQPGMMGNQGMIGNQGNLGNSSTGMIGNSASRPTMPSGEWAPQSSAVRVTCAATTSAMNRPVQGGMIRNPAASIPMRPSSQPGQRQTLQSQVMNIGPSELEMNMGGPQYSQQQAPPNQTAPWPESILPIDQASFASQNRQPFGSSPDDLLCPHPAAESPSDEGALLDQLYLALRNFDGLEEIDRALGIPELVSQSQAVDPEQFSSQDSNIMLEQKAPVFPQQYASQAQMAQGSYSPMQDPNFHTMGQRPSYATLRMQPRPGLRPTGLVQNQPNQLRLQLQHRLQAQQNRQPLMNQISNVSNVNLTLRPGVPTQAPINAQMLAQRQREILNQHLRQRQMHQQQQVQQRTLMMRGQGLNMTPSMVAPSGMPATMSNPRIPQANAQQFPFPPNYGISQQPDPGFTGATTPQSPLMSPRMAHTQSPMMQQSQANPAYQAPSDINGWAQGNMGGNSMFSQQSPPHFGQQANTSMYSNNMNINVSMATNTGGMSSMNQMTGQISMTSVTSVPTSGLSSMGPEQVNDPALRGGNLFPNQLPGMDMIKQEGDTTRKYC
The source made the active and inactive calls.
Exercise: state measured EC50 for each of the compounds provided.

>>> result("O=C(Nc1nnc(-c2ccco2)s1)C1CCN(S(=O)(=O)c2ccc(Cl)cc2)CC1")
"31.4 µM (not active)"
>>> result("O=C(Cc1cccc2ccccc12)Nc1ccc(-c2cc3ccccc3oc2=O)cc1")
"22 µM (not active)"
>>> result("CCn1c(=O)cc(SCC(=O)Nc2cccnc2)c2ccccc21")
"> 79.4 µM (not active)"
>>> result("CCCCNC(=O)CSc1cc(=O)n(C)c2ccccc12")
"> 79.4 µM (not active)"
>>> result("Cc1sc(NC(=S)Nc2ccc(F)cc2)c(C(N)=O)c1C")
"9.42 µM (active)"

// next entry
input: Name the recorded EC50 of the item Cc1cc(SCC(=O)c2ccc3c(c2)OCO3)nc2ccccc12 in your answer.
output: 10.4 µM (not active)

----------
Molecular target: Orexin/Hypocretin receptor type 1 (Homo sapiens)
Sequence (O43613 whole entry): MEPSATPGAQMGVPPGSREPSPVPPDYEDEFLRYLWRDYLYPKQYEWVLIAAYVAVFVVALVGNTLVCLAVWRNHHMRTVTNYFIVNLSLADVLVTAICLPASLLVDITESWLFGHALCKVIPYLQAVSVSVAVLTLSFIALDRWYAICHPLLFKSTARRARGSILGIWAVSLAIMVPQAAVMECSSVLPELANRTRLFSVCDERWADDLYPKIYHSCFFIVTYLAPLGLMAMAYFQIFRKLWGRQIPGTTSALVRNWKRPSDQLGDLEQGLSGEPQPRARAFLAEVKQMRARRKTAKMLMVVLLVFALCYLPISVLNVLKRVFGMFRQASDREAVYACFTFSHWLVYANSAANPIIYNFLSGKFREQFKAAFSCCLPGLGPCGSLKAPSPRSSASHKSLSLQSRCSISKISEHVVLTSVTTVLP
Assay: Fluorescence-based cell-based high throughput dose response assay for antagonists of the orexin 1 receptor (OX1R; HCRTR1). [Related pubchem assays (depositor defined):AID434989, AID435008, AID463079, AID485270, AID492963, AID492964, AID492965, AID493232, AID504717, AID504718]
Type: functional
Activity calls are given as the source filed them.
Exercise: state measured IC50 for each of the molecules provided.

Solved entries:
>>> result("Cc1cc(SCC(=O)c2ccc3c(c2)OCO3)nc2ccccc12")
"18.8 µM (inactive)"
>>> result("CCN(CC)P(=O)(Nc1cccc(C(F)(F)F)c1)c1ccc(N(C)C)cc1NC(=O)c1ccco1 (centres undefined)")
"2.29 µM (active)"
>>> result("CC[C@]12c3[nH]c4cc(-c5ccco5)ccc4c3CCN1C(=O)[C@@H](CC(=O)NC/C=C(\\C)CCC=C(C)C)C[C@@H]2C(=O)N1CCN(C(=O)c2ccco2)CC1")
"3.23 µM (active)"

// next entry
input: Name the recorded IC50 of the item Cc1ccccc1N(CC(=O)NC1CCCC1)C(=O)c1oc(C(C)(C)C)cc1C in your answer.
output: 3.52 µM (active)

----------
target: Corticotropin-releasing factor receptor 2/Corticotropin-releasing factor-binding protein (Homo sapiens, UniProt P24387+Q13324); assay: Dose Response confirmation of uHTS hits for small molecule antagonists of the CRF-binding protein and CRF-R2 receptor complex.; assay type: functional; conditions: read-out: IC50_Mean
Activity calls are given as the source filed them.
Permitted responses: active, inactive

Would you please look over these solved cases?
>>> classification("CCC(C)NC(=O)CSc1nc2ccccc2c(=O)n1CCCC(=O)NCC1CCCO1 (stereo unspecified)")
"inactive"
>>> classification("CC1(C)Cc2c(sc(/N=C/N3CCCC3)c2C#N)C(C)(C)N1")
"inactive"
>>> classification("CN(C)c1ccc(/C(=N\\O)c2ccccc2)cc1")
"inactive"
>>> classification("Cc1cc(C(=O)N2CCN(c3ccc([N+](=O)[O-])cc3)CC2)co1")
"active"
>>> classification("Cc1ccc(CSCC(=O)Nc2cc(S(=O)(=O)N3CCOCC3)ccc2OC(C)C)cc1")
"active"

input: What did the test return for O=C(O)C(c1ccccc1)C1(O)CCCC1 (stereo unspecified) ?
output: inactive
